# system: Lymphokine-activated killer T-cell-originated protein kinase (Homo sapiens, UniProt Q96KB5)
# Sequence (Q96KB5 whole entry): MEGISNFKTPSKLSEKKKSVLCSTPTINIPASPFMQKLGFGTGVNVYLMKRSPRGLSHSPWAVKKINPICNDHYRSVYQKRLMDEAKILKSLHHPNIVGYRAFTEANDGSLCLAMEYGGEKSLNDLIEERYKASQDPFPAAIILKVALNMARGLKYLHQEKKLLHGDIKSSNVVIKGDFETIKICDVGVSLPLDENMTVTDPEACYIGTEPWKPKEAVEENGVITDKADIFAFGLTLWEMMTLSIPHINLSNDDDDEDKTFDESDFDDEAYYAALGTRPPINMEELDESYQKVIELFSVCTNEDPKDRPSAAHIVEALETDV
# experiment: Kinase Assay
# assay_conditions: pH 7.4; 25 °C
# Method: PBK activity was determined in the presence or absence of compounds using fluorescein isothiocyanate-labeled (FITC-labeled) histone H3 peptide as a substrate. […] The serially diluted compounds, 0.8 ng/micro-L PBK (Carna Biosciences) and 100 nM FITC-labeled histone H3 peptide were reacted in a reaction buffer (20 mM HEPES, 0.01% Tween-20, 0.3 mM MgCl2, 2 mM dithiothreitol, 50 micro-M ATP, pH 7.4) at room temperature for 1 hour. […]
pIC50: −log10 of the molar value.

- compound: "C[C@H](c1ccc(-c2c(O)ccc3[nH]c(=O)c4sccc4c23)cc1)N(C)C"
  pIC50: 9.06
- compound: "Cc1cc(O)c(-c2ccc(C3(CN)CCC3)cc2)c2c1[nH]c(=O)c1sccc12"
  pIC50: 8.00
- compound: "CC(=O)c1ccc(-c2c(O)ccc3[nH]c(=O)c4sccc4c23)cc1"
  pIC50: 7.64
- compound: "CN[C@@H](C)c1ccc(-c2c(O)cc(Cl)c3[nH]c(=O)c4sccc4c23)cc1"
  pIC50: 7.72
- compound: "CC[C@@H](N)c1ccc(-c2c(O)cc(Cl)c3[nH]c(=O)c4sccc4c23)cc1"
  pIC50: 7.59
- compound: "C[C@H](N)c1ccc(-c2c(O)ccc3[nH]c(=O)c4sccc4c23)cc1"
  pIC50: 9.09
- compound: "CC[C@H](N)c1ccc(-c2c(O)ccc3[nH]c(=O)c4sccc4c23)cc1"
  pIC50: 9.06
- compound: "CC(N)c1ccc(-c2c(O)ccc3[nH]c(=O)c4sccc4c23)cc1 (configuration not stated)"
  pIC50: 9.14
- compound: "CN(C)C1CCCN(CCCc2c(O)ccc3[nH]c(=O)c4sccc4c23)C1 (configuration not stated)"
  pIC50: 7.08
- compound: "CC[C@H](NC)c1ccc(-c2c(O)ccc3[nH]c(=O)c4sccc4c23)cc1"
  pIC50: 8.89
- compound: "CC(C)(CN)c1ccc(-c2c(O)cc(Br)c3[nH]c(=O)c4sccc4c23)cc1"
  pIC50: 7.14
- compound: "CNCCc1ccc(-c2c(O)cc(Br)c3[nH]c(=O)c4sccc4c23)cc1F"
  pIC50: 7.35
- compound: "N#CCc1ccc(-c2c(O)ccc3[nH]c(=O)c4sccc4c23)cc1"
  pIC50: 7.92
- compound: "Cc1cc2c(s1)c(=O)[nH]c1ccc(O)c(-c3ccc(CN)cc3)c12"
  pIC50: 8.36
- compound: "CNCc1ccc(-c2c(OC)ccc3[nH]c(=O)c4sccc4c23)cc1"
  pIC50: 8.11
- compound: "CCN[C@H](CC)c1ccc(-c2c(O)ccc3[nH]c(=O)c4sccc4c23)cc1"
  pIC50: 8.85
- compound: "CC[C@@H](N)c1ccc(-c2c(O)cc(C)c3[nH]c(=O)c4sccc4c23)cc1"
  pIC50: 7.74
